The origin of these recorded values is paper PMC9161616.

- Method Description: Plasma pharmacokinetics of FGF401 (noncompartmental) and food effect
- Assay type: in vivo, human
- Assay Context: human, plasma, oral, 80 mg, Cycle 1 day 8; 80 mg Fasted; n=6; median [min, max]; read-out: Tmax
Parameter: Tmax (h)
One number for each entry, in h.

Query: State, in one line, measured Tmax of COCCNc1cc(NC(=O)N2CCCc3cc(CN4CCN(C)CC4=O)c(C=O)nc32)ncc1C#N [FGF401, roblitinib]
Reply: 1.01

* * *

- Method Description: Plasma pharmacokinetics of FGF401 (noncompartmental) and food effect
- Type: in vivo, human
- Assay Context: human, plasma, oral, 120 mg, Cycle 1 day 8; 120 mg Fed; n=18; geometric mean (CV%)
Parameter: Cmax (ng/mL)
Answers are plain numbers, in ng/mL.

Query: Given COCCNc1cc(NC(=O)N2CCCc3cc(CN4CCN(C)CC4=O)c(C=O)nc32)ncc1C#N [FGF401, roblitinib] , respond with its Cmax.
Reply: 1060

* * *

- Method Description: Plasma pharmacokinetics of FGF401 (noncompartmental) and food effect
- Format: in vivo, human
- Assay Context: human, plasma, oral, 120 mg, Cycle 1 day 8; 120 mg Fed; n=15; geometric mean (CV%)
- Method: Pharmacokinetic endpoints included plasma concentrations and PK parameters of FGF401 and spartalizumab. Pharmacokinetic parameters were determined with noncompartmental method(s) using Phoenix WinNonlin version 6.4 or above (Pharsight Corporation, Mountain View, Califormia, USA). Immunogenicity of spartalizumab was assessed through presence and/or concentration of anti-drug (spartalizumab) antibodies (ADA). […]
Parameter: AUC(0-inf) (ng·h/mL)
Numbers only, in ng·h/mL.

Query: Find the measured AUC(0-inf) of COCCNc1cc(NC(=O)N2CCCc3cc(CN4CCN(C)CC4=O)c(C=O)nc32)ncc1C#N and report it.
Reply: 7980

* * *

- Method Description: Plasma pharmacokinetics of FGF401 (noncompartmental) and food effect
- Type: in vivo, human
- Assay Context: human, plasma, oral, 80 mg, Cycle 1 day 8; 80 mg Fed; n=4; geometric mean (CV%); read-out: AUClast
Parameter: AUC(0-t) (ng·h/mL)
Give bare numbers, in ng·h/mL.

Query: Specify reported AUC(0-t) for the compound shown: COCCNc1cc(NC(=O)N2CCCc3cc(CN4CCN(C)CC4=O)c(C=O)nc32)ncc1C#N [FGF401, roblitinib]
Reply: 5280

* * *

- Method Description: Plasma pharmacokinetics of FGF401 (noncompartmental) and food effect
- Assay type: in vivo, human
- Assay Context: human, plasma, oral, 80 mg, Cycle 1 day 8; 80 mg Fasted; n=6; geometric mean (CV%); read-out: AUClast
Parameter: AUC(0-t) (ng·h/mL)
Answers are plain numbers, in ng·h/mL.

Query: Please report the measured AUC(0-t) for COCCNc1cc(NC(=O)N2CCCc3cc(CN4CCN(C)CC4=O)c(C=O)nc32)ncc1C#N
Reply: 4840

* * *

- Method Description: Plasma pharmacokinetics of FGF401 (noncompartmental) and food effect
- Assay type: in vivo, human
- Assay Context: human, plasma, oral, 150 mg, Cycle 1 day 8; 150 mg Fasted; n=6; median [min, max]; read-out: Tmax
Parameter: Tmax (h)
Numbers only, in h.

Query: Retrieve Tmax measured for COCCNc1cc(NC(=O)N2CCCc3cc(CN4CCN(C)CC4=O)c(C=O)nc32)ncc1C#N and print it.
Reply: 2.42
